- Tested on: MOLT-4 leukemia
- TEST PROTOCOL: NCI-60 one-dose screen, 48 h (100 = growth as untreated, 0 = no growth, -100 = all killed)
- TEST PARAMETERS: 10 µM unless noted
Compounds without any hit were thinned out: in the full panel of roughly 83,000, 20% have a hit.
growth reference
Express the result in % but write the number alone.

COMPOUND	PARAMETER	VALUE UNIT	NUMERIC VALUE
COc1ccc(Cc2cnc(NC(=O)c3ccc4c(c3)OCCO4)s2)cc1	growth	%	11.6
CN1[C@@H]2CC[C@H]1/C(=C\c1ccccc1)C(=O)/C2=C/c1ccccc1	growth	%	14.9
Nc1nc(Nc2ccccc2SSc2ccccc2Nc2nc(N)nc(-c3ccc(C(F)(F)F)cc3)n2)nc(-c2ccc(C(F)(F)F)cc2)n1	growth	%	56.2
COc1ccc(C(=O)c2nc3ccccc3n2CC(=O)c2ccc(F)cc2)cc1	growth	%	74.8

QUERY: Give recorded growth. `CC(=O)[C@@H]1CC[C@]2(CO)CC[C@]3(C)[C@H](CC[C@@H]4[C@@]5(C)CCCNC(C)(C)[C@@H]5CC[C@]43C)[C@@H]12`
RESULT: 95.3

QUERY: Give recorded growth. `ClC1=C(Br)C(Br)(Br)C(=C(Br)Br)C1(Br)Br`
RESULT: 74.5

QUERY: Give recorded growth. `COc1cccc(C(=O)NNc2nc(Cl)nc(N3CCN(C(c4ccccc4)c4ccccc4)CC3)n2)c1`
RESULT: 4.48

QUERY: Give recorded growth. CC(C)(C)[Si](C)(C)OC1[C@@H](O[Si](C)(C)C(C)(C)C)[C@@H](CNC(=O)NC(=O)CCl)O[C@H]1n1cnc2c(NC(=O)Nc3ccccc3)ncnc21 (stereo partly drawn)
RESULT: -43.8
